Target: Recombinant human his-tagged IGF 1R extracellular domain protein (human) (UniProt P08069)
Test: SPR, captured IgG, IGF-1R ECD-his analyte, dissociation pH 6
pKd: −log10 of the molar value.

{"columns": ["binder", "pKd"],
 "data": [
  ["VRDN-02547 (antibody, V domains shown) VH: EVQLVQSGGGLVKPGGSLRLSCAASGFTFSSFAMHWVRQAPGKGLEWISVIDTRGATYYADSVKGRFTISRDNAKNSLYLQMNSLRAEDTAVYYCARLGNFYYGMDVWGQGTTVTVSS VL: EIVLTQSPGTLSVSPGERATLSCRASQSIGSSLHWYQQKPGQAPRLLIKYASQSLSGIPDRFSGSGSGTDFTLTISRLEPEDFAVYYCHQHSRLPHTFGQGTKVEIK", 10.60],
  ["VRDN-02549 (antibody, V domains shown) VH: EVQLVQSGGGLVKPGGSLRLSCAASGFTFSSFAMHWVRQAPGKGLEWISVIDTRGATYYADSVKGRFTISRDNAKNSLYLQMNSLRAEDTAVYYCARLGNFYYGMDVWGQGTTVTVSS VL: EIVLTQSPGTLSVSPGERATLSCRASQSIGSSLHWYQQKPGQAPRLLIKYASQSLSGIPDRFSGSGSGTDFTLTISRLEPEDFAVYYCHQSSHLPHTFGQGTKVEIK", 10.60],
  ["VRDN-02550 (antibody, V domains shown) VH: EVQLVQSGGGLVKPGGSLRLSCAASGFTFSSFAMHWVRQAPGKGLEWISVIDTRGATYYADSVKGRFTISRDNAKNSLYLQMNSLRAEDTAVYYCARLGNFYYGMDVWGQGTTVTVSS VL: EIVLTQSPGTLSVSPGERATLSCRASQSIGSSLHWYQQKPGQAPRLLIKYASQSLSGIPDRFSGSGSGTDFTLTISRLEPEDFAVYYCHQSSRHPHTFGQGTKVEIK", 10.57],
  ["VRDN-02502 (antibody, V domains shown) VH: EVQLVQSGGGLVKPGGSLRLSCAASGHTFSSFAMHWVRQAPGKGLEWISVIDTRGATYYADSVKGRFTISRDNAKNSLYLQMNSLRAEDTAVYYCARLGNFYYGMDVWGQGTTVTVSS VL: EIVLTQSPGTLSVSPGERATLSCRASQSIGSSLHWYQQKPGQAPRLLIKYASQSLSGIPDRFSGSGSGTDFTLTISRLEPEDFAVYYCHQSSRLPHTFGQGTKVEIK", 10.43],
  ["VRDN-02508 (antibody, V domains shown) VH: EVQLVQSGGGLVKPGGSLRLSCAASGFTFSSFHMHWVRQAPGKGLEWISVIDTRGATYYADSVKGRFTISRDNAKNSLYLQMNSLRAEDTAVYYCARLGNFYYGMDVWGQGTTVTVSS VL: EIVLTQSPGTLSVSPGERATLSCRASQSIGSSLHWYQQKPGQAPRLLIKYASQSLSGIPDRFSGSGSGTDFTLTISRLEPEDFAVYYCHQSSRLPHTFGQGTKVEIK", 8.41]
]}
